Record: pIC50 reported on PTP1B (Homo sapiens).
Sequence (P18031 whole entry): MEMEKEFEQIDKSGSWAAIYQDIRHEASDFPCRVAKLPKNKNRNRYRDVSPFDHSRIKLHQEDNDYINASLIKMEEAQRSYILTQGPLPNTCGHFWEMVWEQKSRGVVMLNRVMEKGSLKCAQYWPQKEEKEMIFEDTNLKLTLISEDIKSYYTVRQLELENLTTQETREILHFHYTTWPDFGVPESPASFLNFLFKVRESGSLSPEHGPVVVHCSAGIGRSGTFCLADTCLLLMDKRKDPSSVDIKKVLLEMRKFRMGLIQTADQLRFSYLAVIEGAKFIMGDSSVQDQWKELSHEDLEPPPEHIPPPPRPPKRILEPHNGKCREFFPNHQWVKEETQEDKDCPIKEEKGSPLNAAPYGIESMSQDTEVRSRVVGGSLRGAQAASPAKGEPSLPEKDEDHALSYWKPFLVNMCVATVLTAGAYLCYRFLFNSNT
Hey, just a heads up that pIC50 is the negative log base 10 of the concentration in molar.

Answered cases to consult:
- compound: "CC(=O)OC1c2c3c(c(Cl)c(O)c2C(=O)OC1C)OC1(C)CCC2(O)OC4(C(C)(C)O)CCC2(C)C1(C3)O4 (stereo not shown) [Compound 5, talarine O]"
  tested target: "PTP1B (Homo sapiens)"
  recorded number: 5.18
- compound: "COC1(C(C)C)CCC2(C)C(=O)CCC3(C)Oc4cc(O)c5c(c4CC32O1)C(OC(C)=O)C(C)OC5=O (stereo not shown) [Compound 4, talarine N]"
  tested target: "PTP1B (Homo sapiens)"
  recorded number: 5.07
- compound: "CC(=O)O[C@@H]1c2c3c(cc(O)c2C(=O)O[C@@H]1C)O[C@]1(C)CCC(=O)[C@]2(C)CC=C(C(C)C)O[C@]12C3 [Compound 12, talaromyolide J]"
  tested target: "PTP1B (Homo sapiens)"
  recorded number: 5.52

// next item, pIC50 requested
pIC50 lookup needed for CC1Cc2c3c(c(Cl)c(O)c2C(=O)O1)OC1(C)CCC2(O)OC4(C(C)(C)O)CCC2(C)C1(C3)O4 (stereo not shown) [Compound 6, talarine P] , thanks. 4.85
